Where do the numbers come from? From patent US10858357B2.

Experiment: Water solubility and solution stability in assay buffer
Assay type: physicochemical
Conditions: assay buffer with 1 vol/vol % DMSO, pH 7.3, aqueous buffer, kinetic from dmso stock, 1 vol/vol % DMSO in assay buffer pH 7.3, room temperature; read-out: saturation concentration (solubility)
recorded.metric: solubility

Dear colleague, I am looking for the recorded solubility of the following molecule: Cc1ccc2c(c1)C(=O)C1(O)CCN(c3ccc(N)cc3)C1=N2 (stereo not shown)
~426 µM

---

Target: rabbit skeletal muscle myosin S1 (SkS1) (Oryctolagus cuniculus)
Construct: SkS1 (rabbit skeletal S1 fragment); from tissue; host or cells: rabbit skeletal muscle
Sequence (Q28641 1-843 limits assumed): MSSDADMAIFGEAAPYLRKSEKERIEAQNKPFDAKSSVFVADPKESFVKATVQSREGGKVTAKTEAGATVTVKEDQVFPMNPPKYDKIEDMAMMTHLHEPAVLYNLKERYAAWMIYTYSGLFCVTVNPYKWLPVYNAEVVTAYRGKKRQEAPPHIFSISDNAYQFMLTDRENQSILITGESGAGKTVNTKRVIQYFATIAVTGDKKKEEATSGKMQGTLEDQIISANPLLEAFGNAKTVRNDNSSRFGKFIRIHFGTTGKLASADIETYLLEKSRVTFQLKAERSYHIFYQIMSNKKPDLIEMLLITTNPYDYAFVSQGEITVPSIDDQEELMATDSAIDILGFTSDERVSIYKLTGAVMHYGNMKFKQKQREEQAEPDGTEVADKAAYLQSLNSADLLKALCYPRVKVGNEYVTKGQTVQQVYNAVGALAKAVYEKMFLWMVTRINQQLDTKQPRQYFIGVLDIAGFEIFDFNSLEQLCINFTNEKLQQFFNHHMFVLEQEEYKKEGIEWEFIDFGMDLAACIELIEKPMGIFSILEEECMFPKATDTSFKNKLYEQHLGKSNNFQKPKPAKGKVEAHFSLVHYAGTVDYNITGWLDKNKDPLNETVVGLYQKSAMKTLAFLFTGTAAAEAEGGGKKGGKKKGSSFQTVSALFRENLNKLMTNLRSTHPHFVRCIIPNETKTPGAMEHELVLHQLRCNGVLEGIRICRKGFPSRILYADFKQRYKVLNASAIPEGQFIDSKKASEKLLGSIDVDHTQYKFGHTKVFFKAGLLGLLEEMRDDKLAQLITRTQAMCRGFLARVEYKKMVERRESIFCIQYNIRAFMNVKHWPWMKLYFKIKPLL
Sequence (P02602 whole entry partner, the tested form may be a part): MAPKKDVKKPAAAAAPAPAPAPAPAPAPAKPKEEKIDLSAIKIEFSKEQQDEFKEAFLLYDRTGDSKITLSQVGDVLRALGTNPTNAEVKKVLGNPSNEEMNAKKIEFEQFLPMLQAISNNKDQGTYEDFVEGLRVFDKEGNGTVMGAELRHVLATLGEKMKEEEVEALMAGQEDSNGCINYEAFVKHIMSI
Assay: Steady state MgATPase, NADH-coupled assay, SkS1
Format: biochemical
Conditions: actin activated, 50 nM SkS1, 45 μM actin, 25° C.; read-out: IC50 actin activated ATPase activity of SkS1
recorded.metric: pIC50
The scale used: pIC50 is minus the common logarithm of the concentration in molar units.

Lookup: pIC50 / rabbit skeletal muscle myosin S1 (SkS1) (Oryctolagus cuniculus) / Cc1ccc2c(c1)C(=O)C1(O)CCN(c3ccc(N)cc3)C1=N2 (stereo not shown)
6.33
